- Target entity: T1, human C5aR (CD88) (human, UniProt P21730 1-350)
- T1 sequence (looked up): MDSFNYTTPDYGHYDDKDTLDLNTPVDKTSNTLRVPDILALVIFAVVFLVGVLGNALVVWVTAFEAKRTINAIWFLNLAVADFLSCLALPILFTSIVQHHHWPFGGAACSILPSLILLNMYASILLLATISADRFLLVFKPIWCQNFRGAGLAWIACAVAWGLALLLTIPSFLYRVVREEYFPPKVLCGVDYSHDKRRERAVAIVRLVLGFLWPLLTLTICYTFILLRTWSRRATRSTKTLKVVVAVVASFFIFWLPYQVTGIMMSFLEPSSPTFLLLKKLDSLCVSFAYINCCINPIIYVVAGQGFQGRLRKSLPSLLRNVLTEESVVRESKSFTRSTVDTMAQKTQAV
- Assay procedure: cell-based or functional assay
Positions of bridges follow the written chain, without caps; N, C: chain ends. Non-standard residues stand in square brackets, D forms with d. No end group written: not given here. Phe(F5) = N[C@@H](Cc1c(F)c(F)c(F)c(F)c1F)C(=O)O; d(hLeu) = CC(C)CC[C@@H](N)C(=O)O; αMeF = C[C@](N)(Cc1ccccc1)C(=O)O; 4Pal = N[C@@H](Cc1ccncc1)C(=O)O; dCha = N[C@H](CC1CCCCC1)C(=O)O; Phg = N[C@H](C(=O)O)c1ccccc1; Nle = CCCC[C@H](N)C(=O)O; Orn = NCCC[C@H](N)C(=O)O; Aze = O=C(O)[C@@H]1CCN1
Assay endpoint: IC50 activity group, enzyme release assay

{"Binder": "Ac-F[Orn]P[dCha]WM (lactam (positions not given here); not fully specified (bridges); printed as Ac-Phe-[Orn-Pro-cha-Trp-Met]) [Ac-Phe-[Orn-Pro-cha-Trp-Met]]", "Result": "≤ 200 nM"}
{"Binder": "H-[αMeF][Orn][Aze][d(hLeu)][Phe(F5)][Nle] (lactam 2-C; SMILES CCCC[C@@H]1NC(=O)[C@H](Cc2c(F)c(F)c(F)c(F)c2F)NC(=O)[C@@H](CCC(C)C)NC(=O)[C@@H]2CCN2C(=O)[C@@H](NC(=O)[C@@](C)(N)Cc2ccccc2)CCCNC1=O) [H-Amf-[Orn-Aze-hle-Pff-Nle]]", "Result": "≤ 200 nM"}
{"Binder": "Ac-F[Orn]P[dCha]W[Phg]-NH2 [Ac-Phe-Orn-Pro-cha-Trp-Phg-NH2]", "Result": "≤ 2000 nM"}
{"Binder": "Ac-F[Orn]P[dCha]W[4Pal] (lactam (positions not given here); not fully specified (bridges); printed as Ac-Phe-[Orn-Pro-cha-Trp-Ppa]) [Ac-Phe-[Orn-Pro-cha-Trp-Ppa]]", "Result": "≤ 200 nM"}

Provenance of the data: patent US7727960B2
